target: AAK1 (Homo sapiens); assay: biochemical; parameters: kinase domain; Thermal shift assay (DSF, SYPRO Orange), 2 uM kinase domain, mean delta Tm of triplicates versus DMSO; settings: read-out: AAK1
Sequence (Q2M2I8 27-365 limits assumed): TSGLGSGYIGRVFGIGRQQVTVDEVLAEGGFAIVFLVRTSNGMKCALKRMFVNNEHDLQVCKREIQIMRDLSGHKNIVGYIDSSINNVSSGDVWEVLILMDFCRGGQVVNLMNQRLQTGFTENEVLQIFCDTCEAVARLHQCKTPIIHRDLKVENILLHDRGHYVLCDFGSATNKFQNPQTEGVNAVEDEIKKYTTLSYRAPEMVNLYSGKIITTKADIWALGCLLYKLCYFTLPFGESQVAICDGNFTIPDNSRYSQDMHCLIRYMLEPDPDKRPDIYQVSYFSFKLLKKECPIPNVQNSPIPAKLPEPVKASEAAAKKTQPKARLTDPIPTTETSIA
reported-metric: ΔTm at 12.5 µM
Note to self: number, then unit, no commentary.

Examples with answers:
| compound | ΔTm at 12.5 µM |
| --- | --- |
| C[C@@H](Oc1cc(-c2cnn(C3CCNCC3)c2)cnc1N)c1c(Cl)ccc(F)c1Cl | 3.01 °C |
| CCOc1cc2ncc(C#N)c(Nc3ccc(OCc4ccccn4)c(Cl)c3)c2cc1NC(=O)/C=C/CN(C)C | 0.98 °C |
| COc1cccc2cc(-c3nc([C@H]4CC[C@H](C(=O)O)CC4)n4ncnc(N)c34)[nH]c12 | 0.0767 °C |
| CNC(=O)c1cc(Oc2ccc(NC(=O)Nc3ccc(Cl)c(C(F)(F)F)c3)cc2)ccn1 | 1.03 °C |
| C=CCn1c(=O)c2cnc(Nc3ccc(N4CCN(C)CC4)cc3)nc2n1-c1cccc(C(C)(C)O)n1 | 4.03 °C |
| COc1ncc(-c2ccc3nccc(-c4ccnnc4)c3c2)cc1NS(=O)(=O)c1ccc(F)cc1F | 4.05 °C |
| Cc1[nH]c(/C=C2\C(=O)Nc3ccccc32)c(C)c1CCC(=O)O [Orantinib] | 6.55 °C |
| CCS(=O)(=O)c1cccc(-c2cc(C(=O)NC3CCN(C)CC3)c(C)c3[nH]c4ncc(C)cc4c23)c1 | 5.22 °C |

INPUT: API: value(readout= ΔTm at 12.5 µM, system= AAK1 (Homo sapiens), query= Cn1cc(C2=C(c3cn(C4CCN(Cc5ccccn5)CC4)c4ccccc34)C(=O)NC2=O)c2ccccc21 )
OUTPUT: 0.7 °C

INPUT: Enter reported ΔTm at 12.5 µM observed with AAK1 (Homo sapiens) for COc1cc(O)c2c(c1)/C=C/C[C@H](O)[C@H](O)C(=O)/C=C\C[C@H](C)OC2=O
OUTPUT: 11.4 °C

INPUT: Enter reported ΔTm at 12.5 µM observed with AAK1 (Homo sapiens) for O=C(Cc1ccc(-c2ccc(OCCN3CCOCC3)cc2)cn1)NCc1ccccc1
OUTPUT: 0.0867 °C

INPUT: Query ΔTm at 12.5 µM on AAK1 (Homo sapiens) for Cc1ccc(C(=O)Nc2ccc(CN3CCN(C)CC3)c(C(F)(F)F)c2)cc1C#Cc1cnc2cccnn12
OUTPUT: 2.99 °C

INPUT: ΔTm at 12.5 µM of COc1ccc(Cl)c(Nc2nc3ccccc3nc2NS(=O)(=O)c2cccc(NC(=O)C(C)(C)N)c2)c1 on AAK1 (Homo sapiens)?
OUTPUT: 0.00667 °C

INPUT: For AAK1 (Homo sapiens), provide ΔTm at 12.5 µM of CC1(COc2ccc3c(c2)ncn3-c2ccc3cccc(N4CCC(N)CC4)c3n2)COC1 please.
OUTPUT: 4.66 °C

INPUT: // lookup ΔTm at 12.5 µM | system=AAK1 (Homo sapiens) | key= Cc1cc(C(=O)NOCCO)c(Nc2ccc(I)cc2F)n(C)c1=O
OUTPUT: 0.187 °C

INPUT: Find the measured ΔTm at 12.5 µM: item CS(=O)(=O)CCNCc1ccc(-c2ccc3ncnc(Nc4ccc(OCc5cccc(F)c5)c(Cl)c4)c3c2)o1 , target or system AAK1 (Homo sapiens).
OUTPUT: 1.7 °C
